Test system: iCell cardiomyocytes (human iPSC-derived cardiomyocytes)
Assay: Intracellular Ca2+ flux / beating parameters in iCell cardiomyocytes (FLIPR tetra), 90 min or 24 h
Type: cell-based
Conditions: Homo sapiens, Cardiomyocyte, 24 h, 0.01 µM; 0.00 µM = 100.00; read-out: cm.decay.rise.24hrs
Protocol: Details on cardiomyocyte cell culture are described in detail elsewhere ([Grimm et al. 2015b]; [Sirenko et al. 2013a]). […] Live cell counts for each cell suspension were determined by trypan blue staining and cells were further diluted to provide final cell densities of 2×10^5 viable cells/ml. […] Responses of iCell®-cardiomyocytes to drugs and chemicals were evaluated using intracellular Ca^2+ flux measurements ([Grimm et al. 2015b]; [Sirenko et al. 2013b]). […]
Counter-ions that a name gives are not always drawn.
Everything with activity at 0.01 µM lower than 80% is 0; everything else, including exactly 80%, is 1.

Example cases with answers are listed next.
compound	systemTested	classification
Oc1ccc(-c2ccc(Cl)cc2)cc1	iCell cardiomyocytes (human iPSC-derived cardiomyocytes)	0
O=S(=O)(O)Oc1ccc(-c2cccc(Cl)c2)cc1Cl [4-yl PCB 11 sulfate]	iCell cardiomyocytes (human iPSC-derived cardiomyocytes)	1
O=C1C=CC(=O)C(c2ccc(Cl)cc2)=C1	iCell cardiomyocytes (human iPSC-derived cardiomyocytes)	1

Task: Please indicate if the recorded activity at 0.01 µM for O=S(=O)(O)Oc1cc(-c2ccccc2)ccc1Cl [3-yl PCB 3 sulfate] meets or exceeds 80%.
Result: 0

Task: Please indicate if the recorded activity at 0.01 µM for O=S(=O)(O)Oc1ccc(-c2ccc(Cl)cc2)cc1 [4'-yl PCB 3 sulfate] meets or exceeds 80%.
Result: 1

Task: Please indicate if the recorded activity at 0.01 µM for COc1ccc(-c2ccc(Cl)cc2)cc1 meets or exceeds 80%.
Result: 1

----------
system: iCell endothelial cells (human iPSC-derived ECs); assay: High-content imaging cytotoxicity in iCell endothelial cells, 24 h; type: cell-based; settings: Homo sapiens, Endothelial cell, iPSC-EC, 24 hr, 0.10 µM, 0.00 µM control = 100.00, read-out: endo.nma.24hr
Structures can show the parent of a compound that is named as a salt.
Consider the following molecules and their measured activity at 0.1 µM readings.
I only need the number, in %, no unit after it.

Completed entries (count: 3):
molecule	numericValue
Oc1ccccc1-c1ccc(Cl)cc1	98.8
Oc1ccc(O)c(-c2ccc(Cl)cc2)c1	101
Oc1cccc(-c2ccc(Cl)cc2)c1	97.6

Task: Please give the measured activity at 0.1 µM for this molecule: O=S(=O)(O)Oc1cc(Cl)ccc1-c1ccccc1 [2-yl PCB 3 sulfate]
Result: 100

Task: Please give the measured activity at 0.1 µM for this molecule: O=S(=O)(O)Oc1ccc(-c2ccc(Cl)cc2)cc1 [4'-yl PCB 3 sulfate]
Result: 99.6

Task: Please give the measured activity at 0.1 µM for this molecule: O=S(=O)(O)Oc1cc(-c2ccccc2)ccc1Cl [3-yl PCB 3 sulfate]
Result: 104

Task: Please give the measured activity at 0.1 µM for this molecule: Clc1cccc(-c2cccc(Cl)c2)c1
Result: 102

----------
tested on: iCell endothelial cells (human iPSC-derived ECs); assay: High-content imaging cytotoxicity in iCell endothelial cells, 24 h; type: cell-based; details: Homo sapiens, Endothelial cell, iPSC-EC, 24 hr, 10.00 µM, 0.00 µM control = 100.00, read-out: endo.mito.24hr
Where a name gives a salt, the structure may show the parent alone.
Consider the following compounds and their measured activity at 10 µM readings.
I only need the number, in %, no unit after it.

compound	systemTested	numericValue
O=S(=O)(O)Oc1ccc(-c2ccc(Cl)cc2)cc1 [4'-yl PCB 3 sulfate]	iCell endothelial cells (human iPSC-derived ECs)	102

Task: Param readout= activity at 10 µM; system= iCell endothelial cells (human iPSC-derived ECs); entry= O=C1C=CC(=O)C(c2ccc(Cl)cc2)=C1 ; returns value.
Result: 87.7

Task: Param readout= activity at 10 µM; system= iCell endothelial cells (human iPSC-derived ECs); entry= Oc1cc(Cl)cc(-c2cccc(Cl)c2)c1 ; returns value.
Result: 103

Task: Param readout= activity at 10 µM; system= iCell endothelial cells (human iPSC-derived ECs); entry= Oc1ccc(O)c(-c2ccc(Cl)cc2)c1 ; returns value.
Result: 86.6

Task: Param readout= activity at 10 µM; system= iCell endothelial cells (human iPSC-derived ECs); entry= Clc1cccc(-c2cccc(Cl)c2)c1 ; returns value.
Result: 99.4

Task: Param readout= activity at 10 µM; system= iCell endothelial cells (human iPSC-derived ECs); entry= O=S(=O)(O)Oc1ccc(-c2cccc(Cl)c2)cc1Cl [4-yl PCB 11 sulfate] ; returns value.
Result: 104

----------
tested on: iCell cardiomyocytes (human iPSC-derived cardiomyocytes); assay: High-content imaging of cytotoxicity and mitochondrial integrity in iPSC-CMs; type: cell-based; settings: Homo sapiens, Cardiomyocyte, 24 h, 0.10 µM; 0.00 µM = 100.00; read-out: cm.cam.24hrs
Structures can show the parent of a compound that is named as a salt.
valueKind: viability at 0.1 µM (%)
I only need the number, in %, no unit after it.

compound	numericValue
COc1ccc(-c2ccc(Cl)cc2)cc1	102
Clc1cccc(-c2cccc(Cl)c2)c1	99.5
Oc1ccccc1-c1ccc(Cl)cc1	94.5
Oc1ccc(O)c(-c2ccc(Cl)cc2)c1	100
Oc1cccc(-c2ccc(Cl)cc2)c1	99.1

Task: Param readout= viability at 0.1 µM; system= iCell cardiomyocytes (human iPSC-derived cardiomyocytes); entry= Oc1cc(Cl)cc(-c2cccc(Cl)c2)c1 ; returns value.
Result: 101

Task: Param readout= viability at 0.1 µM; system= iCell cardiomyocytes (human iPSC-derived cardiomyocytes); entry= O=S(=O)(O)Oc1cc(Cl)ccc1-c1ccccc1 [2-yl PCB 3 sulfate] ; returns value.
Result: 101

Task: Param readout= viability at 0.1 µM; system= iCell cardiomyocytes (human iPSC-derived cardiomyocytes); entry= O=S(=O)(O)Oc1ccc(-c2cccc(Cl)c2)cc1Cl [4-yl PCB 11 sulfate] ; returns value.
Result: 101

----------
test system: HUVECs; assay: Tube formation (tubulogenesis) assay in HUVECs, 18 h; format: cell-based, human; settings: Homo sapiens, HUVEC, 18 h, HUVECs, 0.01 µM, 0.00 µM = 100.00, read-out: huvec.ttl.18hr
Counter-ions that a name gives are not always drawn.
valueKind: activity at 0.01 µM (%)
I only need the number, in %, no unit after it.

Completed entries (count: 3):
compound	systemTested	valueKind	numericValue
Oc1ccc(-c2ccc(Cl)cc2)cc1 [4'-OH PCB3]	HUVECs	activity at 0.01 µM	119
O=S(=O)(O)Oc1cc(Cl)ccc1-c1ccccc1 [2-yl PCB 3 sulfate]	HUVECs	activity at 0.01 µM	108
O=S(=O)(O)Oc1ccc(-c2ccc(Cl)cc2)cc1 [4'-yl PCB 3 sulfate]	HUVECs	activity at 0.01 µM	109

Task: Please give the measured activity at 0.01 µM for this compound: O=S(=O)(O)Oc1cc(-c2ccccc2)ccc1Cl [3-yl PCB 3 sulfate]
Result: 73.3

Task: Please give the measured activity at 0.01 µM for this compound: Clc1ccc(-c2ccccc2)cc1 [PCB3]
Result: 71.6

Task: Please give the measured activity at 0.01 µM for this compound: Oc1ccc(O)c(-c2ccc(Cl)cc2)c1 [2',5'-DiOH PCB3]
Result: 123

----------
system: iCell cardiomyocytes (human iPSC-derived cardiomyocytes); experiment: Intracellular Ca2+ flux / beating parameters in iCell cardiomyocytes (FLIPR tetra), 90 min or 24 h; type: cell-based; details: Homo sapiens, Cardiomyocyte, 1.5 h, 10.00 µM; 0.00 µM = 100.00; read-out: cm.bpm.90min
Structures can show the parent of a compound that is named as a salt.
Consider the following compounds and their measured activity at 10 µM readings.
Write the quantity with the unit trailing the number.

Completed entries (count: 5):
compound	activity at 10 µM
Oc1cccc(-c2ccc(Cl)cc2)c1	130%
Oc1ccc(O)c(-c2ccc(Cl)cc2)c1	104%
O=S(=O)(O)Oc1cc(Cl)ccc1-c1ccccc1 [2-yl PCB 3 sulfate]	96.5%
O=S(=O)(O)Oc1cc(-c2ccccc2)ccc1Cl [3-yl PCB 3 sulfate]	96.5%
Clc1ccc(-c2ccccc2)cc1	103%

Note: attention shifts to another entry.
Task: Param readout= activity at 10 µM; system= iCell cardiomyocytes (human iPSC-derived cardiomyocytes); entry= Oc1cc(Cl)cc(-c2cccc(Cl)c2)c1 ; returns value.
Result: 137%

----------
test system: iCell cardiomyocytes (human iPSC-derived cardiomyocytes); assay: High-content imaging of cytotoxicity and mitochondrial integrity in iPSC-CMs; format: cell-based; conditions: Homo sapiens, Cardiomyocyte, 1.5 h, 10.00 µM; 0.00 µM = 100.00; read-out: cm.mii.90min
Where a name gives a salt, the structure may show the parent alone.
valueKind: activity at 10 µM (%)
I only need the number, in %, no unit after it.

Completed entries (count: 5):
molecule	systemTested	numericValue
Oc1cc(Cl)cc(-c2cccc(Cl)c2)c1 [5-OH PCB 11]	iCell cardiomyocytes (human iPSC-derived cardiomyocytes)	108
Clc1cccc(-c2cccc(Cl)c2)c1 [PCB11]	iCell cardiomyocytes (human iPSC-derived cardiomyocytes)	105
O=S(=O)(O)Oc1cc(Cl)ccc1-c1ccccc1 [2-yl PCB 3 sulfate]	iCell cardiomyocytes (human iPSC-derived cardiomyocytes)	96.5
COc1ccc(-c2cccc(Cl)c2)cc1Cl [4-OMe PCB11]	iCell cardiomyocytes (human iPSC-derived cardiomyocytes)	109
Oc1ccc(-c2cccc(Cl)c2)cc1Cl [4-OH PCB11]	iCell cardiomyocytes (human iPSC-derived cardiomyocytes)	93.6

Task: Please give the measured activity at 10 µM for this molecule: O=S(=O)(O)Oc1cccc(-c2ccc(Cl)cc2)c1 [3'-yl PCB 3 sulfate]
Result: 104
